For each entry below, report its activity change, negative = cytotoxicity value.
# assay-notes: cytotoxicity in HEK293T cells, dose response, cytotoxicity control, cell-based, CellTiter-Glo luminescence, dry powder (AID 743481)
# condition-parameters: HEK293T viability, ATP luminescence, 72 h; at 26 µM (top of the series)
Your answer should be a plain number; it is taken to be in %.

Request: Request the reported activity change, negative = cytotoxicity associated with CC(=O)Nc1ccc2c(c1)C(=O)N([C@H](C)CO)C[C@H](C)[C@H](CN(C)C(=O)Nc1ccc(F)cc1)OCCCC[C@H](C)O2
Response: -16.5

Request: Request the reported activity change, negative = cytotoxicity associated with C[C@H](CO)N1C[C@H](C)[C@H](CN(C)C(=O)Nc2ccccc2F)OCCCC[C@H](C)Oc2ccc(NC(=O)C3CCCCC3)cc2C1=O
Response: -11.7

Request: Request the reported activity change, negative = cytotoxicity associated with C[C@H](CO)N1C[C@H](C)[C@H](CN(C)C(=O)Nc2ccccc2)OCCCC[C@H](C)Oc2ccc(NC(=O)C3CCCCC3)cc2C1=O
Response: -9.15

Request: Request the reported activity change, negative = cytotoxicity associated with C[C@@H]1CCCCO[C@H](CN(C)C(=O)Nc2cccc3ccccc23)[C@H](C)CN([C@H](C)CO)C(=O)c2cc(NC(=O)C3CCCCC3)ccc2O1
Response: 3.66

Request: Request the reported activity change, negative = cytotoxicity associated with C[C@H](CO)N1C[C@H](C)[C@H](CN(C)C(=O)Nc2cccc3ccccc23)OCCCC[C@H](C)Oc2ccc(NC(=O)CCC(F)(F)F)cc2C1=O
Response: 24.6

Request: Request the reported activity change, negative = cytotoxicity associated with C[C@@H]1CCCCO[C@H](CN(C)C(=O)Nc2cccc3ccccc23)[C@H](C)CN([C@@H](C)CO)C(=O)c2cc(NC(=O)C3CCCCC3)ccc2O1
Response: -10.3
